- Tested on: marmosets
- METHOD DESCRIPTION: Lipid lowering effect in marmosets assessed as reduction in plasma HDL-cholesterol level at 100 mg/kg, po administered once daily for 7 days
- Format: functional
- STATED CONDITIONS: Callitrichinae sp., in Callithrix jacchus, 168 h
READOUT KIND: inhibition in vivo at 100 mg/kg (%)

>>> result_number("COc1cccc([C@H]2O[C@H](CCn3cc(CC(=O)O)nn3)c3cccn3-c3ccc(Cl)cc32)c1OC")
-8
>>> result_number("COc1cccc([C@H]2O[C@H](CC(=O)N3CCC(CC(=O)O)CC3)C(=O)N(CC(C)(C)COC(C)=O)c3ccc(Cl)cc32)c1OC [LAPAQUISTAT ACETATE]")
14
>>> result_number("COc1cccc([C@H]2O[C@H](CC(=O)N3CCC(CC(=O)O)CC3)c3cccn3-c3ccc(Cl)cc32)c1OC")
-11
>>> result_number("COc1cccc([C@H]2O[C@H](CCn3nnc(CC(=O)O)n3)c3cccn3-c3ccc(Cl)cc32)c1OC")
6
>>> result_number("COc1cccc([C@H]2O[C@H](CCC(=O)N3CCC[C@H](C(=O)O)C3)c3cccn3-c3ccc(Cl)cc32)c1OC")
-21
>>> result_number("COc1cccc([C@H]2O[C@H](CCn3ccc(CC(=O)O)n3)c3cccn3-c3ccc(Cl)cc32)c1OC")
-10

The origin of these recorded values is ChEMBL document CHEMBL2057169.
